Hey, just so you know, these numbers are from PubChem BioAssay (NCI).

TEST_SUMMARY: NCI Yeast Anticancer Drug Screen. Data for the mec2-1 strain (AID 157)
PROTOCOL_CONDITIONS: S. cerevisiae mec2-1 strain, at 1.2 µM, hits give high values
The panel holds about 79,000 compounds, 15% with a hit somewhere; the sample as a whole holds those more often.
The entries below come with measured growth inhibition values attached.
Write the number in % without appending the unit.

{"COMPOUND": "CCC(/C=C/c1ccccc1)=N\\Nc1ccc(Cl)c(Cl)c1", "READOUT": "growth inhibition", "OBSERVED_RESULT": -2}
{"COMPOUND": "O=[N+]([O-])c1ccc(C(c2c[nH]c3ccccc23)c2c[nH]c3ccccc23)cc1", "READOUT": "growth inhibition", "OBSERVED_RESULT": 22}
{"COMPOUND": "CC1CN(/N=C\\c2ccc([N+](=O)[O-])o2)C(=O)O1 (centres undefined)", "READOUT": "growth inhibition", "OBSERVED_RESULT": 2}
{"COMPOUND": "CCC(OC(C)=O)C1CC(C(C)C)CCC1C (centres undefined)", "READOUT": "growth inhibition", "OBSERVED_RESULT": 2}
{"COMPOUND": "CCCCOc1ccc2nc(C)cc(N=[N+]=[N-])c2c1", "READOUT": "growth inhibition", "OBSERVED_RESULT": 11}
{"COMPOUND": "CC(C)S(=O)(=O)/C=C\\S(=O)(=O)C(C)C", "READOUT": "growth inhibition", "OBSERVED_RESULT": 1}
{"COMPOUND": "CCOP(=O)(OCC)/C(C#N)=C\\c1cccc2ccccc12", "READOUT": "growth inhibition", "OBSERVED_RESULT": 4}
{"COMPOUND": "COC(=O)C(=O)c1c(-c2ccc(Cl)c(Cl)c2)[nH]c2[nH]n(-c3ccccc3)c(=O)c2c1=O", "READOUT": "growth inhibition", "OBSERVED_RESULT": -2}

Next up:
Q) Returns the measured growth inhibition for the input compound. Input: COc1ccccc1/C=C\C(=O)C1COCN1 (centres undefined)
A) 4

* * *

TEST_SUMMARY: NCI Yeast Anticancer Drug Screen. Data for the mec2-1 strain (AID 157)
PROTOCOL_CONDITIONS: S. cerevisiae mec2-1 strain, at 5.0 µM (retest, dose inferred, filed as 0.5), hits give high values
About 79,000 compounds went through this panel and 15% of them were active in at least one assay; those are over-represented in the sample as a whole.
READOUT: growth inhibition (%)
Express it in %; write the number only.

Q) Consider the molecule Fc1ccc(Nc2ccc3ccccc3c2)cc1 and give its measured growth inhibition.
A) -2

Q) Which measured growth inhibition value corresponds to O=C(NO)c1coc2ccccc2c1=O ?
A) 1

Q) What value of growth inhibition has been recorded for this entry: S=C(NCc1ccccn1)N/N=C/c1ccccn1
A) 33

Q) Find the recorded growth inhibition belonging to Cc1ccc(S(=O)(=O)NC(=O)C2C(=O)CC3(CCCCC3)CC2=O)cc1 and report it.
A) 12

* * *

TEST_SUMMARY: NCI Yeast Anticancer Drug Screen. Data for the mgt1 strain (AID 153)
PROTOCOL_CONDITIONS: S. cerevisiae mgt1 mutant growth inhibition; at 1.2 µM; hits give high values
About 79,000 compounds went through this panel and 15% of them were active in at least one assay; those are over-represented in the sample as a whole. Calls of active or inactive are those of the source. Cut-off read from the data, not from the text of the source: active = growth inhibition above about 70%; inactive = the rest.
READOUT: growth inhibition

{"MOLECULE": "CC(=O)N1C=Cc2c(c(C)c3c([nH]c4ccccc43)c2C)C1", "READOUT": "growth inhibition", "OBSERVED_RESULT": "29% (inactive)"}
{"MOLECULE": "CC(CN(C)C)C(=O)/C=C/c1ccc(Cl)c(Cl)c1 (configuration not stated)", "READOUT": "growth inhibition", "OBSERVED_RESULT": "4% (inactive)"}
{"MOLECULE": "O=[N+]([O-])c1cc[n+]([O-])c(Cl)c1", "READOUT": "growth inhibition", "OBSERVED_RESULT": "12% (inactive)"}
{"MOLECULE": "O=C(/C(=C/c1ccc(O)cc1)c1ccccc1)c1ccccc1", "READOUT": "growth inhibition", "OBSERVED_RESULT": "-4% (inactive)"}
{"MOLECULE": "C/C(=N\\Sc1ccccc1)c1ccccc1O", "READOUT": "growth inhibition", "OBSERVED_RESULT": "2% (inactive)"}

Q) Using the record for CCCCN(CCCC)c1ccc(N=Nc2ccc(S(=O)(=O)O)cc2)cc1 , report its growth inhibition.
A) 19% (inactive)

Q) Can you look up the measured growth inhibition of O=C(NCCCCN(CCCNC(=O)C(F)(F)F)Cc1ccccc1)C(F)(F)F for me?
A) 22% (inactive)
